Origin of values: PubChem BioAssay

- protocol-notes: basal S. cerevisiae growth modulation, no modifier, primary screen, OD600, strain BY4716, 24 h, basal condition (AID 1173)
- test-parameters: OD600, 24 h, higher = more signal, called active from +8 up or from −8 down
readout-label: z-score
Simply state the number, no unit and no words.

Reference set, count: 6
Need z-score, item O=C1O[C@@H](c2ccccc2)[C@@H](c2ccccc2)N2[C@@H](c3ccccc3OCCO)[C@]3(C(=O)Nc4ccc(C#CCCO)cc43)[C@@H](C(=O)O)[C@H]12
-1.28

Need z-score, item COC(=O)CC=C[C@@H](C)[C@H](OC)c1ccccc1Br
-1.15

Need z-score, item CCN1C(=O)[C@H]2[C@H]3[C@H](O)[C@H](O)CC(=NOCc4ccccc4)[C@H]3CC[C@H]2C1=O
-0.0753

Need z-score, item CO[C@H]1O[C@H](CO)[C@@H](OC(=O)Nc2ccc(C#N)cc2)[C@H](OC(=O)c2cc3ccccc3[nH]2)[C@H]1OC(=O)c1cc2ccccc2[nH]1
-1.05

Need z-score, item CCOC(=O)C[C@H]1[C@H](OC(=O)c2ccc(C(=O)c3ccccc3)cc2)[C@@H](NC(=O)c2ccc(-c3ccccc3)cc2)c2cc(OCCCO)ccc2N1C(=O)c1ccc2ccccc2n1
-1.1

Need z-score, item CC(C)=CCCC(C)=CCON=C1[C@H]2CCn3c(=O)n(Cc4cc5c(cc4Cl)OCO5)c(=O)n3[C@H]2[C@H](O)[C@@H]2O[C@H]12
-0.696

Turning now to a further record.
Need z-score, item CC(=O)C[C@H](O)[C@@H](NC(=O)OC(C)(C)C)C(C)C
-1.33

###

- protocol-notes: osmotic lysis modulators in infected erythrocytes, primary screen, PSAC antagonist project, cell-based, P. falciparum Indochina, OD700, 3 h (AID 1156)
- test-parameters: higher = more signal, called active from +8 up or from −8 down
Classify on z-score using low = under 0.2, intermediate = from 0.2 up to 0.4, high = 0.4 and over

Solved cases (5 shown):
# bin lookup: classify O=C1CCCC2OC12C(O)CCc1ccccc1 (centres undefined) by its z-score
low

# bin lookup: classify COC(=O)C1=C(C)[C@@H](O)[C@@H](C)[C@H](c2c(OC)c(OC)c(C)c(OC)c2OC)O1 by its z-score
intermediate

# bin lookup: classify CC1(C)OCC(C(O)C2=CCCCC2=O)CO1 (centres undefined) by its z-score
high

# bin lookup: classify C[C@H](c1ccccc1)N1C(=O)[C@H]2[C@@H]3C(=CC[C@H]2C1=O)C(=O)[C@H]1O[C@H]1[C@H]3O by its z-score
low

# bin lookup: classify CC(CCN1CCc2nc(-c3ccccc3)c(-c3ccccc3)cc2C1)=NOC(C)CN1CCCCc2nc(C)c(C)cc21 (centres undefined) by its z-score
intermediate

Further cases:
# bin lookup: classify COc1ccc(CCNC(=O)[C@@H]2c3ccccc3C(=O)N(c3ccc(C)cn3)[C@H]2c2ccc(CO)cc2)cc1 by its z-score
high

# bin lookup: classify CCOC(=O)CCN1C(=O)[C@H]2[C@H]3[C@H](O)[C@H](O)CC(=NOC[C@@H](O)COCc4ccco4)[C@@H]3CC[C@H]2C1=O by its z-score
low

# bin lookup: classify COC(=O)[C@H](C)NC(=O)[C@@H](C)CO by its z-score
intermediate

# bin lookup: classify O=C1[C@H]2[C@H]3[C@H](O)[C@H](O)CC(=NOC[C@@H](O)COCc4ccco4)[C@H]3CC[C@H]2C(=O)N1c1cccc(Oc2ccccc2)c1 by its z-score
high
